Measured values drawn from PubChem BioAssay for this set.

# Protocol: DUSP6 inhibitors restoring Erk phosphorylation by chemical complementation, primary imaging in DUSP6-transfected HeLa (AID 609)
# Condition: HeLa MKP-3 transfected, phospho-Erk imaging KS statistic; measured here: cell density z-score; at 10 µM; cells stimulated with TPA for 15 min
Exercise: state measured z-score for each of the compounds provided.

Recorded result, CC(=Nc1ccc(C)c(C)c1)C1=C(O)CCC1=O , z-score: 0.598

Recorded result, Cc1ccc(S(=O)(=O)NCC(=O)OCN2C(=O)c3ccccc3C2=O)cc1 , z-score: -0.341

Recorded result, Cn1ncc2c(Nc3ccccc3Br)ncnc21 , z-score: 0.246

Recorded result, CCNC(=O)N(C)c1nncnc1C(=O)NC , z-score: 0.426

Recorded result, CC1(C)CC(=O)C2=C(C1)OC(N)=C(C#N)[C@@]21C(=O)N(CC(N)=O)c2ccccc21 , z-score: 0.0987

Recorded result, CCOC(=O)c1[nH]c2ccc(OC)cc2c1NC(=O)CN1CCN(c2ccccn2)CC1 , z-score: -0.126

Recorded result, CNCCCC1c2ccccc2C=Cc2ccccc21 , z-score: 0.8

Recorded result, COCCOC(=O)c1c(C)nc(SCC(=O)Nc2ccc(C)cc2)c(C#N)c1-c1ccco1 , z-score: 1.33

Recorded result, COc1cc([C@@H]2[C@H]3CNCC=C3C(C#N)=C(N)C2(C#N)C#N)ccc1OC(C)C , z-score: -0.404

Recorded result, O=C(CCC1CCCC1)N1CCC(N2CCN(c3ccccc3)CC2)CC1 , z-score: 0.947

Recorded result, COc1cc(=O)n2c(-c3ccccc3)csc2n1 , z-score: -1.46
